# tested.target: C-terminal peptide of usher (FTDTHL)
# assay.procedure: Equilibrium peptide binding titration followed by intrinsic tryptophan fluorescence
# condition.label: Y167W mutation introduced as fluorescent probe; protein 3 µM; 25°C, pH 7.2
pKd: −log10 of the molar value.
experimental.readout: pKd

Before answering, review these 4 worked examples.
molecule	pKd
DFNB31_1/R144E: DFNB31_1 PDZ domain mutant R144E (protein, left off: His6, N-terminal, state not stated) GEVRLVSLERAKAHEGLGFSIRGGSEHGVGIWVSLVEPGSLAEKEGLRVGDQILRVNDKSLARVTHAEAVKALKGSKKLVLSVYSAGRI	4.09
DFNB31_1/K209E: DFNB31_1 PDZ domain mutant K209E (protein, left off: His6, N-terminal, state not stated) GEVRLVSLRRAKAHEGLGFSIRGGSEHGVGIWVSLVEPGSLAEKEGLRVGDQILRVNDKSLARVTHAEAVKALEGSKKLVLSVYSAGRI	3.76
DFNB31_1/Y167W: DFNB31_1 with Y167W mutation as fluorescent probe (protein, left off: His6, N-terminal, state not stated, DFNB31_1 with Y167W mutation as fluorescent probe) GEVRLVSLRRAKAHEGLGFSIRGGSEHGVGIWVSLVEPGSLAEKEGLRVGDQILRVNDKSLARVTHAEAVKALKGSKKLVLSVYSAGRI	4.34
DFNB31_1: recombinant his-tagged first PDZ domain of human DFNB31 (protein, left off: His6, N-terminal, state not stated, recombinant his-tagged first PDZ domain of human DFNB31) GEVRLVSLRRAKAHEGLGFSIRGGSEHGVGIYVSLVEPGSLAEKEGLRVGDQILRVNDKSLARVTHAEAVKALKGSKKLVLSVYSAGRI	4.34

[1] DFNB31_1/K212E: DFNB31_1 PDZ domain mutant K212E (protein, left off: His6, N-terminal, state not stated) GEVRLVSLRRAKAHEGLGFSIRGGSEHGVGIWVSLVEPGSLAEKEGLRVGDQILRVNDKSLARVTHAEAVKALKGSEKLVLSVYSAGRI
[2] DFNB31_1/K206E: DFNB31_1 PDZ domain mutant K206E (protein, left off: His6, N-terminal, state not stated) GEVRLVSLRRAKAHEGLGFSIRGGSEHGVGIWVSLVEPGSLAEKEGLRVGDQILRVNDKSLARVTHAEAVEALKGSKKLVLSVYSAGRI
[3] DFNB31_1/R145E: DFNB31_1 PDZ domain mutant R145E (protein, left off: His6, N-terminal, state not stated) GEVRLVSLREAKAHEGLGFSIRGGSEHGVGIWVSLVEPGSLAEKEGLRVGDQILRVNDKSLARVTHAEAVKALKGSKKLVLSVYSAGRI
In: Reorder the items by pKd, least to greatest. Please write the labels in the order that was asked for.
Out: 1, 2, 3
(1: 3.66, 2: 3.95, 3: 4.15)

Provenance of the data: paper PMC3563628
